experiment: Inhibition of acinetobacter-derived cephalosporinase
Reported Ki values follow for various molecules

{"Molecule": "CCN1CCN(C(=O)N[C@@H](C(=O)NCB(O)O)c2ccc(O)cc2)C(=O)C1=O [CEFOPERAZONE BATSI]", "Ki": "600 nM"}
{"Molecule": "CC(C)(O/N=C(\\C(=O)NCB(O)O)c1csc(N)n1)C(=O)O [CEFTAZIDIME BATSI]", "Ki": "310 nM"}

###

assay: Inhibition of beta-lactamase TEM1 expressed in Escherichia coli JM109

{"Chemical Structure": "CC(C)(O/N=C(\\C(=O)NCB(O)O)c1csc(N)n1)C(=O)O", "Uom": "nM", "Ki": 390}
